# test_target: UniProt P11509
# Sequence (P11509 whole entry): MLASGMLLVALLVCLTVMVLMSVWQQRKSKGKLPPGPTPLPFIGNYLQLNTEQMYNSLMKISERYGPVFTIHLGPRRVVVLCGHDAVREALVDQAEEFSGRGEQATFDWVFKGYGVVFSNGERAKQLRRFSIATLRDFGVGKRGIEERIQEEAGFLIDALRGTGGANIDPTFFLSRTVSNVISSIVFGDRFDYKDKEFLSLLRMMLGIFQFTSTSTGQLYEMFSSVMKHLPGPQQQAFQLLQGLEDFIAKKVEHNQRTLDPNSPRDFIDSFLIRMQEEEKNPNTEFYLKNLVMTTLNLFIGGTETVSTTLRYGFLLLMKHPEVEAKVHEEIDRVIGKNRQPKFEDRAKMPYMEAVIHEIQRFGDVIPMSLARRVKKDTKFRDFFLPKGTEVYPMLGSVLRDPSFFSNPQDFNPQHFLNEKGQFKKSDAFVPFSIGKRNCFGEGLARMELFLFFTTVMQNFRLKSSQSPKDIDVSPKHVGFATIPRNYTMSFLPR
readout: IC50

Short answer for COc1cc2c(cc1OCCCCCCC(=O)O)C[C@@H](C(C)C)n1cc(C(=O)O)c(=O)cc1-2 : IC50 was > 10 µM

----------
# test_target: Cytochrome P450 2D6 (Homo sapiens, UniProt P10635)
# Sequence (P10635 whole entry): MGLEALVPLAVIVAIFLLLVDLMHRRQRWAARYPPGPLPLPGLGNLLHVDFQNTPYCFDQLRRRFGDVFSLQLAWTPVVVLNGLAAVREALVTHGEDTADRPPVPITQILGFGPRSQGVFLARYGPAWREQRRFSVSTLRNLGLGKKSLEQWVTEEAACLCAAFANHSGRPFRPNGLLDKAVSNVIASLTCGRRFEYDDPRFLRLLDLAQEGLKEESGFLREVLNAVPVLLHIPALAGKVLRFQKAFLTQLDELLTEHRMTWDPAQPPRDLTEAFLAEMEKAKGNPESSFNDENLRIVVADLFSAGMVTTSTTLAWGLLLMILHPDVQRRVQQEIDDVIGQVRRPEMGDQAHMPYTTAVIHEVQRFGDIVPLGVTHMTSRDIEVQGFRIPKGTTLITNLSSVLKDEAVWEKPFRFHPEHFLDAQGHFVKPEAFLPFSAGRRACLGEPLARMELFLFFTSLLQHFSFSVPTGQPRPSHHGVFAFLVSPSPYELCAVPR
readout: IC50

Short answer for COc1cc2c(cc1OCCCCCCC(=O)O)C[C@@H](C(C)C)n1cc(C(=O)O)c(=O)cc1-2 : IC50 was > 10 µM

----------
# test_summary: Efflux ratio of apparent permeability in human Caco-2 cells at 10 uM incubated for 1 hr
# Type: ADME, cell-based
readout: efflux ratio at 1 h, 10 µM
I'd appreciate a reply containing only the number, no unit.

Short answer for COc1cc2c(cc1OCCCCCCC(=O)O)C[C@@H](C(C)C)n1cc(C(=O)O)c(=O)cc1-2 : efflux ratio at 1 h, 10 µM was 5.3

----------
# test_summary: AUC (last) in CD-1 mouse plasma at 8 mg/kg, po measured for 24 hrs by LC-MS/MS analysis
# Format: ADME, organism-based
# Parameters: route oral, dose 8 mg/kg, time 24 hrs
readout: AUC(0-t) at 24 h (ng·h/mL)
Output spec: scalar in ng·h/mL, unitless text.

Short answer for COc1cc2c(cc1OCCCCCCC(=O)O)C[C@@H](C(C)C)n1cc(C(=O)O)c(=O)cc1-2 : AUC(0-t) at 24 h was 34.7

----------
# test_summary: Ratio of AUC(last) in liver to plasma in CD-1 mouse at 8 mg/kg, po by LC-MS/MS analysis
# Format: ADME, organism-based
readout: Kp
I'd appreciate a reply containing only the number, no unit.

Short answer for COc1cc2c(cc1OCCCCCCC(=O)O)C[C@@H](C(C)C)n1cc(C(=O)O)c(=O)cc1-2 : Kp was 37.7

Taken from ChEMBL document CHEMBL4808208.
